# measured target: Beta-secretase 1 (Cricetulus griseus, UniProt G3IAK4)
# Sequence (G3IAK4 whole entry): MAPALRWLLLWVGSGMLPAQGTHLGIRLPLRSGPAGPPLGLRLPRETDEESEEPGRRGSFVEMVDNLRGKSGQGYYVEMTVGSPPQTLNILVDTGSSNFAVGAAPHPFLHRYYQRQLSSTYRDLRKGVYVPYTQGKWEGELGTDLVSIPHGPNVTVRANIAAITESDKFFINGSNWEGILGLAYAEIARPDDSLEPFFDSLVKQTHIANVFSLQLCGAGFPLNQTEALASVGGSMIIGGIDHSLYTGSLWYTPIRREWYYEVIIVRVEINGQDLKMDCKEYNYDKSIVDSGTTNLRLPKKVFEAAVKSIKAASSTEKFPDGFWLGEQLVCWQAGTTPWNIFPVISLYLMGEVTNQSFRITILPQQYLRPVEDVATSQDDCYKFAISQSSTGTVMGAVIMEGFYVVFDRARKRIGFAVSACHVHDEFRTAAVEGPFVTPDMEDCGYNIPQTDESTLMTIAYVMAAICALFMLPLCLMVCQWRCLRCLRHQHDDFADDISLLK
# experiment: Inhibition of wild type human APP751 expressed in CHO cells incubated for 24 hrs by immunoassay
# Type: cell-based
# protocol conditions: cho
quantity name: IC50
A bare number is not enough; add the unit after it.

Would you please look over these solved cases?
C[C@@]1(c2cc(NC(=O)c3ncc(C#N)cc3Cl)ccc2F)CO[C@@](C)(C(F)(F)F)C(N)=N1 | 4 nM
COc1cnc(C(=O)Nc2ccc(F)c([C@]3(C)CO[C@@](C)(C(F)(F)F)C(N)=N3)c2)c(C)c1 | 17 nM
C[C@@]1(c2cc(NC(=O)c3ncc(Br)cn3)ccc2F)CO[C@@](C)(C(F)(F)F)C(N)=N1 | 5 nM

Okay, now this compound:
**Q:** // query IC50 value for entry Cc1nc(C#N)cnc1C(=O)Nc1ccc(F)c([C@]2(C)CO[C@@](C)(C(F)(F)F)C(N)=N2)c1
**A:** 105 nM
